Reference source for all entries: patent US20100184809A1

Experiment: Aqueous solubility assay, Protocol A, nephelometry method
Format: physicochemical
Conditions: PBS with 5% DMSO, aqueous with cosolvent or surfactant or cyclodextrin, kinetic from dmso stock, PBS pH 7.4, 5% DMSO, 23° C., 24 hours, read-out: Aqueous solubility pH 7.4
readout.label: solubility at 24 h

* Cc1nc(OCc2c(-c3c(Cl)cccc3Cl)noc2C(C)C)ccc1N(C)S(=O)(=O)c1ccc(C(=O)O)cc1 | > 100 µM
* CC(C)c1onc(-c2c(Cl)cccc2Cl)c1COc1ccc(N(C)C(=O)c2ccc(C(=O)O)cc2)c(C(F)(F)F)n1 | > 100 µM
* CC(C)c1onc(-c2c(Cl)cccc2Cl)c1COc1ccc(N(C)C(=O)c2ccc(C(N)=O)cc2)c(C(F)(F)F)n1 | 2 to 100 µM
* CC(C)c1onc(-c2c(Cl)cccc2Cl)c1COc1ccc(NC(=O)c2ccc(C(=O)O)cc2)c(C(F)(F)F)n1 | > 100 µM
* CC(C)c1onc(-c2c(Cl)cccc2Cl)c1COc1ccc(NC(=O)c2cccc(C(=O)O)c2)c(C(F)(F)F)n1 | > 100 µM
* CC(C)c1onc(-c2c(Cl)cccc2Cl)c1COc1ccc(/C=C/c2cccc(C(=O)O)c2)c(Cl)c1 [Compound B, reference compound] | < 2 µM
* CC(C)c1onc(-c2c(Cl)cccc2Cl)c1CCc1ccc(Oc2ccc(C(=O)O)cc2)cc1 [Compound A, reference compound] | 2 to 100 µM

* * *

Assay: Aqueous solubility assay, Protocol B, shake-flask method
Format: physicochemical
Conditions: aqueous buffer, 10 mM PBS buffer pH 7.4, 1% MeOH, room temperature, read-out: Aqueous solubility pH 7.4 (μM) (±standard deviation), shake-flask method
Description: Protocol B, shake-flask method: Sample preparation: Sample and standard solution preparation is performed by mixing equal volumes of acetonitrile containing the internal standard (1 μM final concentration) with sample and calibration standard solutions (100 μl). After vigorously shaking (10 seconds) the samples are centrifuged (6000 g) for 5 minutes at 20° C. […] The aqueous solubility of the compounds was determined by measuring the concentration of the PBS buffer supernatant by HPLC-MS/MS.
readout.label: solubility at 20 h

* CC(C)c1onc(-c2c(Cl)cccc2Cl)c1CCc1ccc(Oc2ccc(C(=O)O)cc2)cc1 [Compound A, reference compound] | 72.4 µM
* CC(C)c1onc(-c2c(Cl)cccc2Cl)c1COc1ccc(/C=C/c2cccc(C(=O)O)c2)c(Cl)c1 [Compound B, reference compound] | 17.7 µM
* CC(C)c1onc(-c2c(Cl)cccc2Cl)c1COc1cnc(N(C)Cc2cccc(C(=O)O)c2)c(Cl)c1 [Example 32] | 129 µM

* * *

Assay: Human microsomal stability assay
Type: in vitro ADME
Details: liver microsomes, 0.5 mg microsomal protein/ml, 10 μM compound, 37° C., read-out: Human liver microsome clearance
Measured microsomal CLint at 10 μM values are reported for all entries that follow.
readout.label: microsomal CLint at 10 μM

* CC(C)c1onc(-c2c(Cl)cccc2Cl)c1COc1ccc(/C=C/c2cccc(C(=O)O)c2)c(Cl)c1 [Compound B, reference compound] | 100 µL/min/mg
* CC(C)c1onc(-c2c(Cl)cccc2Cl)c1COc1ccc(N(C)C(=O)c2ccc(C(=O)O)cc2)c(C(F)(F)F)n1 [Example 7] | 14 µL/min/mg
* Cc1nc(OCc2c(-c3c(Cl)cccc3Cl)noc2C(C)C)ccc1N(C)S(=O)(=O)c1ccc(C(=O)O)cc1 [Example 4] | 62 µL/min/mg
